Form field: logD (one value per entry).
# CONDITION INFO: octanol/water, pH 7.4
# Description: Partition coefficient, log D of the compound at pH 7.4 by shake flask method
Number only, please.

In the examples that follow, each entry is paired with its recorded logD.
Cc1nn(C(F)F)cc1S(=O)(=O)Nc1c(N2CCC(Cc3ccccc3)CC2)c(=O)c1=O	-0.1
O=c1c(NS(=O)(=O)c2ccccc2)c(N2CCC(Cc3ccccc3)CC2)c1=O	0.2
Cc1noc(C)c1S(=O)(=O)Nc1c(N2CCC(CCc3ccccc3)CC2)c(=O)c1=O	0
COc1ccc(CN2CCN(c3c(NS(=O)(=O)c4c(C)noc4C)c(=O)c3=O)CC2)cc1	-0.9
Cc1noc(C)c1S(=O)(=O)Nc1c(N2CCC(NCc3ccc(C(F)(F)F)cc3)CC2)c(=O)c1=O	0.8
Cc1noc(C)c1S(=O)(=O)Nc1c(N2CCC(N(C)Cc3ccc(Cl)cc3)CC2)c(=O)c1=O	0.5
Cc1noc(C)c1S(=O)(=O)Nc1c(N2CCC(N(C)CC3CCCCC3)CC2)c(=O)c1=O	-0.4
CO[C@H]1/C=C/O[C@@]2(C)Oc3c(C)c(O)c4c(O)c(c(/C=N/N5CCN(C)CC5)c(O)c4c3C2=O)NC(=O)/C(C)=C\C=C\[C@H](C)[C@H](O)[C@@H](C)[C@@H](O)[C@@H](C)[C@H](OC(C)=O)[C@@H]1C [RIFAMPIN]	1.3

Endpoint output: logD of Cc1noc(C)c1C(=O)Nc1c(N2CCC(Cc3ccccc3)CC2)c(=O)c1=O . Value?
1.7

Follow-up entry: Cc1noc(C)c1S(=O)(=O)Nc1c(N2CCC(c3ccccc3)CC2)c(=O)c1=O
-0.6

====

# TEST DETAILS: Fraction unbound (%) in human plasma at 10 uM by LC/MS-MS analysis
# Type: ADME, cell-free
ENDPOINT LABEL: fraction unbound at 10 µM

Endpoint output: fraction unbound at 10 µM of Cc1noc(C)c1S(=O)(=O)Nc1c(N2CCC(Cc3ccccc3)CC2)c(=O)c1=O . Value?
< 0.01

====

Form field: Fu (one value per entry).
# Test system: Plasma
# TEST DETAILS: Fraction unbound (%) in human plasma at 10 uM by LC/MS-MS analysis
# Format: ADME, cell-free
# CONDITION INFO: 10 µM

Cc1noc(C)c1S(=O)(=O)Nc1c(N2CCN(Cc3ccc(C#N)cc3)CC2)c(=O)c1=O	2.9%
O=c1c(NS(=O)(=O)c2ccccc2)c(N2CCC(Cc3ccccc3)CC2)c1=O	< 1%
Cc1ccc(CC2CCN(c3c(NS(=O)(=O)c4c(C)noc4C)c(=O)c3=O)CC2)cc1	< 1%
Cc1noc(C)c1S(=O)(=O)Nc1c(N2CCC(N(C)CC3CCCCC3)CC2)c(=O)c1=O	38%

Now look at this one.
Endpoint output: Fu of Cc1noc(C)c1S(=O)(=O)Nc1c(N2CCC(NCc3ccc(C(F)(F)F)cc3)CC2)c(=O)c1=O . Value?
6.6%

====

# TEST DETAILS: Equilibrium solubility of the compound in phosphate buffer by LC-MS analysis
ENDPOINT LABEL: solubility thermodynamic

Cc1noc(C)c1S(=O)(=O)Nc1c(N2CCC(NCc3ccc(C(F)(F)F)cc3)CC2)c(=O)c1=O	> 1000 µM
Cc1noc(C)c1S(=O)(=O)Nc1c(N2CCC(N(C)Cc3ccc(Cl)cc3)CC2)c(=O)c1=O	> 1000 µM
Cc1ccc(CC2CCN(c3c(NS(=O)(=O)c4c(C)noc4C)c(=O)c3=O)CC2)cc1	> 1000 µM
Cc1nn(C(F)F)cc1S(=O)(=O)Nc1c(N2CCC(Cc3ccccc3)CC2)c(=O)c1=O	> 1000 µM
Cc1noc(C)c1S(=O)(=O)Nc1c(N2CCC(Cc3ccccc3)CC2)c(=O)c1=O	> 1000 µM

Endpoint output: solubility thermodynamic of O=c1c(NS(=O)(=O)c2ccccc2)c(N2CCC(Cc3ccccc3)CC2)c1=O . Value?
> 1000 µM

Follow-up entry: Cc1noc(C)c1S(=O)(=O)Nc1c(N2CCN(Cc3ccc(C#N)cc3)CC2)c(=O)c1=O
> 1000 µM

====

Form field: logD (one value per entry).
# CONDITION INFO: octanol/water, pH 7.4

In the examples that follow, each entry is paired with its recorded logD.
Cc1noc(C)c1S(=O)(=O)Nc1c(N2CCCC(Cc3ccccc3)C2)c(=O)c1=O (configuration not stated)	-0.3
Cc1ccc(CC2CCN(c3c(NS(=O)(=O)c4c(C)noc4C)c(=O)c3=O)CC2)cc1	0.5
Cc1noc(C)c1S(=O)(=O)Nc1c(N2CCN(CCc3ccccc3)CC2)c(=O)c1=O	-0.4
Cc1noc(C)c1S(=O)(=O)Nc1c(N2CCN(Cc3ccc(C#N)cc3)CC2)c(=O)c1=O	-1.3
Cc1noc(C)c1S(=O)(=O)Nc1c(N2CCC(NCc3ccc(F)cc3)CC2)c(=O)c1=O	0
Cc1noc(C)c1S(=O)(=O)Nc1c(N2CCC(C)CC2)c(=O)c1=O	-1

Now look at this one.
Endpoint output: logD of CCCC/C(C)=C/C=C(\C)C(=O)c1c(O)cc(C(C)CC/C=C/NC(=O)OC)oc1=O (racemic) . Value?
-0.3
